# Tested on: Staphylococcus aureus
# measurement notes: Antibacterial activity against erythromycin-susceptible Staphylococcus aureus ATCC 25923
# Format: functional
endpoint: MIC

INSERT INTO assay_data (entry_smiles, assay_system, endpoint, result) VALUES
  ('CC[C@H]1OC(=O)[C@H](C)[C@@H](O[C@H]2C[C@@](C)(OC)[C@@H](OC(=O)NCc3cn(Cc4ccccc4F)nn3)[C@H](C)O2)[C@H](C)[C@@H](O[C@@H]2O[C@H](C)C[C@H](N(C)C)[C@H]2O)[C@](C)(O)C[C@@H](C)CN(C)[C@H](C)[C@H]2OC(=O)O[C@@]21C', 'Staphylococcus aureus', 'MIC', '4 µg/mL'),
  ('CC[C@H]1OC(=O)[C@H](C)[C@@H](O[C@H]2C[C@@](C)(OC)[C@@H](OC(=O)NCc3cn(Cc4ccc([N+](=O)[O-])cc4)nn3)[C@H](C)O2)[C@H](C)[C@@H](O[C@@H]2O[C@H](C)C[C@H](N(C)C)[C@H]2O)[C@](C)(O)C[C@@H](C)CN(C)[C@H](C)[C@@H](O)[C@]1(C)O', 'Staphylococcus aureus', 'MIC', '1 µg/mL');
